Reference for the values: the supplement of paper PMC10627819

test system: S. aureus Newman; assay: Bliss interaction score (quartile over a dose matrix) (fitness difference); higher = more antagonism (negative = synergy);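 further: first quartile when negative (synergy) and third quartile when positive (antagonism)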
Consider the following compounds; for each one, report its Bliss interaction score.

Reference set (2 entries):
Prompt line: So what's the measured Bliss interaction score for this one? N[C@@H]1CONC1=O [CycloserineD] + CN1C2=CC=CC=C2N=C3C1=CC=CC3=O [Pyocyanin]
Response line: -0.0546

Prompt line: So what's the measured Bliss interaction score for this one? O=C(N[C@H](CO)[C@H](O)c1ccc([N+](=O)[O-])cc1)C(Cl)Cl [Chloramphenicol] + CCC[C@@H]1C[C@@H](C(=O)N[C@@H]([C@H]2O[C@H](SC)[C@H](O)[C@@H](O)[C@H]2O)[C@H](C)Cl)N(C)C1 [Clindamycin]
Response line: -0.0758

// batch mode: one Bliss interaction score value per listed entry
1. O=C(N[C@H](CO)[C@H](O)c1ccc([N+](=O)[O-])cc1)C(Cl)Cl [Chloramphenicol] + CC[C@H]1OC(=O)[C@H](C)C(=O)[C@H](C)[C@@H](O[C@@H]2O[C@H](C)C[C@H](N(C)C)[C@H]2O)[C@](C)(OC)C[C@@H](C)C(=O)[C@H](C)[C@H]2N(CCCCn3cnc(-c4cccnc4)c3)C(=O)O[C@]12C [Telithromycin]
2. O=C(N[C@H](CO)[C@H](O)c1ccc([N+](=O)[O-])cc1)C(Cl)Cl [Chloramphenicol] + CN(N=O)C(=O)N[C@@H](C=O)[C@@H](O)[C@H](O)[C@H](O)CO [Streptozotocin]
3. C/C(=C\C(=O)OCCCCCCCCC(=O)O)C[C@@H]1OC[C@H](C[C@@H]2O[C@H]2[C@@H](C)[C@H](C)O)[C@@H](O)[C@H]1O [Pseudomonic acid] + CN(N=O)C(=O)N[C@@H](C=O)[C@@H](O)[C@H](O)[C@H](O)CO [Streptozotocin]

Response line:
1: -0.0946; 2: 0.0386; 3: -0.0211
